Field: pKd. Provide a value for each of the sequences that follow.
Target: HLA-A*02:03
Experiment: IEDB peptide-MHC binding, purified MHC/competitive/radioactivity; filed as Kd, often an IC50 or EC50 that approximates it; bounds were set here for any values at or beyond the usual limits of such assays
Conditions: source organism: SARS coronavirus Tor2
Answers are plain numbers, as −log10 of the molar value.

Solved cases below.
ordered_residues=FLAFVVFLL experimental_system=HLA-A*02:03 endpoint_result=7.06
ordered_residues=FICNLLLLFV experimental_system=HLA-A*02:03 endpoint_result=7.84
ordered_residues=LMANLAPHLL experimental_system=HLA-A*02:03 endpoint_result=8.84
ordered_residues=LVIGFLFLA experimental_system=HLA-A*02:03 endpoint_result=7.71
ordered_residues=FLLVTLAIL experimental_system=HLA-A*02:03 endpoint_result=9.01

Below is a list of sequences. For each, state its recorded pKd.
1. YIFFASFYYI
2. SQMETDFLEL
3. LMSFTILCLV

Output:
7.22
6.22
7.04
